- System Under Test: HLA-A*24 (human)
- Measurement Protocol: UV-ligand exchange, anti-b2m ELISA
In this section, each of the binders is paired with its reported peptide exchange yield.
Attribute Measured: peptide exchange yield

RYAEEVGIF [peptide SEQ ID No 199 …]: 50 to 75%
RYSTGLAGNLL [peptide SEQ ID No 221 …]: 50 to 75%
DYLKGLASF [peptide SEQ ID No 163 …]: > 75%
KYTSWYVAL [peptide SEQ ID No 228 …]: > 75%
KYIPYKYVI [peptide SEQ ID No 223 …]: 50 to 75%
LYNKGFIYL [peptide SEQ ID No 159 …]: > 75%
EYINQGDLHEF [peptide SEQ ID No 275 …]: 50 to 75%
VFQNFPLLF [peptide SEQ ID No 184 …]: > 75%
